Data credit: the RNAGym collection of RNA variant scans (doi:10.1073/pnas.2313332121)

B1: TPR 5TU (parent)
chain: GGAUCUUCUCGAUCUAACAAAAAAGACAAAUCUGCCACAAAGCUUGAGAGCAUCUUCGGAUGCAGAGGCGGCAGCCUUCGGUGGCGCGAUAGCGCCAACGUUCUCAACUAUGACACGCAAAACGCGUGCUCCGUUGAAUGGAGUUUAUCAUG

# Variants of: B1
# Assay Summary: polymerase ribozyme fitness, log enrichment relative to wild type (log ratio); higher = more active; in vitro selection for triplet polymerase activity
Variants at the floor of the assay were thinned out.
Measurement Label: polymerase ribozyme fitness (log ratio)

Entry under test: U55A U61A C93U C103A . Its polymerase ribozyme fitness (log ratio) was ≤ -4.2

Entry under test: A16G A20U C32A U45A A47C G83C C93G G140A . Its polymerase ribozyme fitness (log ratio) was ≤ -4.2

Entry under test: G86C C99G U109G C129A U148G . Its polymerase ribozyme fitness (log ratio) was ≤ -4.2

Entry under test: A24G A30G A47U A52C A60C C76A G100A C114A C118G G140A . Its polymerase ribozyme fitness (log ratio) was ≤ -4.2

Entry under test: C96U A107G G117A . Its polymerase ribozyme fitness (log ratio) was ≤ -4.2

Entry under test: C18G A113G U134A . Its polymerase ribozyme fitness (log ratio) was -3.95

Entry under test: A3C C32U G59A . Its polymerase ribozyme fitness (log ratio) was -3.67
